Data provenance: patent US20090191193A1

result type: melting point

Per the record, `COc1ccc(/C=C(\C#N)S(=O)(=O)Cc2ccccc2)c(F)c1` has melting point of 161 to 166 °C

Per the record, `N#C/C(=C\c1c(F)c(F)c(F)c(F)c1F)S(=O)(=O)Cc1ccc(F)cc1` has melting point of 156 to 158 °C

Per the record, `COc1ccc(CS(=O)(=O)/C(C#N)=C/c2ccc(OC)cc2OC)cc1` has melting point of 156 to 160 °C

----------
// melting point lookup, one value per entry

[
  {
    "compound": "NC(=O)/C(=C\\c1cccc(Cl)c1Cl)S(=O)(=O)Cc1ccc([N+](=O)[O-])cc1 [Example 169]",
    "recorded result": "200 to 202 °C"
  },
  {
    "compound": "N#C/C(=C\\c1c(F)c(F)c(F)c(F)c1F)S(=O)(=O)Nc1ccc(F)cc1 [Example 234]",
    "recorded result": "150 to 152 °C"
  },
  {
    "compound": "COc1ccc(CS(=O)(=O)/C(C#N)=C/c2ccc(OC)c(OC)c2)cc1 [Example 148]",
    "recorded result": "155 to 160 °C"
  },
  {
    "compound": "N#C/C(=C\\c1ccc(O)cc1O)S(=O)(=O)Cc1ccc(Cl)cc1 [Example 60]",
    "recorded result": "250 to 255 °C"
  },
  {
    "compound": "COc1ccc(/C=C(\\C#N)S(=O)(=O)Cc2ccc(Cl)cc2)cc1 [Example 50]",
    "recorded result": "143 to 152 °C"
  },
  {
    "compound": "CC(=O)Oc1ccc(/C=C(\\C#N)S(=O)(=O)Cc2ccc(F)cc2)cc1 [Example 84]",
    "recorded result": "116 to 125 °C"
  },
  {
    "compound": "N#C/C(=C\\c1ccc(Cl)cc1)S(=O)(=O)Nc1ccc(Br)cc1 [Example 212]",
    "recorded result": "169 to 171 °C"
  },
  {
    "compound": "N#C/C(=C\\c1ccc(Cl)cc1)S(=O)(=O)Cc1ccc(Cl)cc1 [Example 61]",
    "recorded result": "145 to 168 °C"
  }
]

# ---- query compound ----
Per the record, COc1ccc(NS(=O)(=O)/C(C#N)=C/c2cc(OC)ccc2OC)cc1 [Example 202] has melting point of 156 to 158 °C
